Listing of entries alongside the reported median fluorescence intensity, fold over isotype control.
# SYSTEM_UNDER_TEST: T1, MERS full length Spike (MERS-CoV, UniProt K9N5Q8 18-1291)
# T1 sequence: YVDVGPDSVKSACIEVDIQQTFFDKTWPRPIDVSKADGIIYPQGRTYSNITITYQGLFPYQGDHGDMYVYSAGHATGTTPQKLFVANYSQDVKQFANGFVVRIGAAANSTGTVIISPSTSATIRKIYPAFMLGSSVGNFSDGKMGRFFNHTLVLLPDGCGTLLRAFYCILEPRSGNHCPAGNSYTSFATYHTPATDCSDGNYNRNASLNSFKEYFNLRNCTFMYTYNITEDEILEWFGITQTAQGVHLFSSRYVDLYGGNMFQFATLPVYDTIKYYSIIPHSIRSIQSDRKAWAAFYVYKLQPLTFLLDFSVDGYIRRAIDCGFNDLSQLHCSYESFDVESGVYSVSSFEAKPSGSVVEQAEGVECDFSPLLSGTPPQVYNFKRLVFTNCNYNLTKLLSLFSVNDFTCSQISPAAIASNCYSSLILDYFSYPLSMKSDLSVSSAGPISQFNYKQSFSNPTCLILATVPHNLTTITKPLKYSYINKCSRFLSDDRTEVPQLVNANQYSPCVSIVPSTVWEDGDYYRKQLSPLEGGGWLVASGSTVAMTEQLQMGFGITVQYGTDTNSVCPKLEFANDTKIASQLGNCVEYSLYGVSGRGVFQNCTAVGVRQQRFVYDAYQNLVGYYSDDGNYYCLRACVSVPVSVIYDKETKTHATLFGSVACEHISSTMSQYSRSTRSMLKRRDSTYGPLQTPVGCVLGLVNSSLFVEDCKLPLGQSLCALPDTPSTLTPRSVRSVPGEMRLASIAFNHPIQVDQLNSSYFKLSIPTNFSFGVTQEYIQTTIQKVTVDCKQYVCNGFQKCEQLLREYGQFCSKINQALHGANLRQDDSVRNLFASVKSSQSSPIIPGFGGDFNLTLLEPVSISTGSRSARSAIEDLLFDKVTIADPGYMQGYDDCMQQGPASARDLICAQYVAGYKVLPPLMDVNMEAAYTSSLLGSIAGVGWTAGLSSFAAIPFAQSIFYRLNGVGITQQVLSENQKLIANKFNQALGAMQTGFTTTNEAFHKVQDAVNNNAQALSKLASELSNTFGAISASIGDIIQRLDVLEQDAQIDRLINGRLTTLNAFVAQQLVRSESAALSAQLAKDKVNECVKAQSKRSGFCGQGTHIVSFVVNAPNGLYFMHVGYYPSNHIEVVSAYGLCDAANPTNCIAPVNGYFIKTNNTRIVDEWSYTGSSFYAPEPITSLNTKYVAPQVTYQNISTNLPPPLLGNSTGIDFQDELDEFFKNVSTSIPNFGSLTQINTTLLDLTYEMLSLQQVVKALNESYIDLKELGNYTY
Please state the value followed by its unit.

INSERT INTO assay_data (binder, result) VALUES
  ('mAb 1135 (antibody, V domains shown) VH: EVQLVESGGGLVQPGRSLRLSCAASGLTFEDYAMHWVRQVPGKGLEWVSGISWNSGTIGYADSVKGRFIISRDNAKNSLYLQMRSLRAEDTALYYCAKDVGFGELLYYAFDIWGQGTMVTVSS VL: QSALTQPASVSGSPGQSITISCTGTSSDVGGYNYVSWYQQHPGKAPKLMIYDVSNRPSGVSNRFSGSKSGNTASLTISGLQAEDEADYYCSSYTSSSTVVFGGGTKLTVLG', '0.93 fold over isotype'),
  ('mAb 896 (antibody, V domains shown) VH: EVQLVESGGGVVQPGGSLRLSCAASGFTFDDYAMHWVRQVPGKGLEWVSLISGDGGSTYYADSVKGRFTISRDNSKNSLYVQMNSLRTEDTALYYCVKDRGGSGWDLNHYYYGMDVWGQGTTVTVSS VL: DIQLTQSPSFLSASVGDRVTVTCRASQGISSYLAWYQQKPGKAPKLLIYAAYTLQSGVPSRFSGSGSETEFTLTISSLQPEDFATYYCQQVKSYPLTFGGGTKVEIKR', '1.02 fold over isotype');

# input for lookup
Query: Given mAb 1075 (antibody, V domains shown) VH: QVQLVQSGAEVKKPGASVKVSCKVSGYTLIELSMHWVRQAPGKGLEWMGGFDPEDGETIYAQKFQGRVTMTEDTSTDTAYMELSSLRSEDTAVYYCATEWAYYGSGSYLGYWGQGTLVTVSS VL: EIVMTQSPATLSVSPGERATLSCRASQSVSSNLAWFQQKPGQAPRLLIYGASTRVTVIPARFSGSGSGTEFTLTISSLQSEDFAVYYCQQYNNWPRTFGQGTKVEIKR , state its recorded median fluorescence intensity, fold over isotype control.
Result: 0.89 fold over isotype

Origin of measurements: patent US20220356229A1
